Biological target: c-FMS (CSF1R) (Homo sapiens)
Sequence (P07333 20-972): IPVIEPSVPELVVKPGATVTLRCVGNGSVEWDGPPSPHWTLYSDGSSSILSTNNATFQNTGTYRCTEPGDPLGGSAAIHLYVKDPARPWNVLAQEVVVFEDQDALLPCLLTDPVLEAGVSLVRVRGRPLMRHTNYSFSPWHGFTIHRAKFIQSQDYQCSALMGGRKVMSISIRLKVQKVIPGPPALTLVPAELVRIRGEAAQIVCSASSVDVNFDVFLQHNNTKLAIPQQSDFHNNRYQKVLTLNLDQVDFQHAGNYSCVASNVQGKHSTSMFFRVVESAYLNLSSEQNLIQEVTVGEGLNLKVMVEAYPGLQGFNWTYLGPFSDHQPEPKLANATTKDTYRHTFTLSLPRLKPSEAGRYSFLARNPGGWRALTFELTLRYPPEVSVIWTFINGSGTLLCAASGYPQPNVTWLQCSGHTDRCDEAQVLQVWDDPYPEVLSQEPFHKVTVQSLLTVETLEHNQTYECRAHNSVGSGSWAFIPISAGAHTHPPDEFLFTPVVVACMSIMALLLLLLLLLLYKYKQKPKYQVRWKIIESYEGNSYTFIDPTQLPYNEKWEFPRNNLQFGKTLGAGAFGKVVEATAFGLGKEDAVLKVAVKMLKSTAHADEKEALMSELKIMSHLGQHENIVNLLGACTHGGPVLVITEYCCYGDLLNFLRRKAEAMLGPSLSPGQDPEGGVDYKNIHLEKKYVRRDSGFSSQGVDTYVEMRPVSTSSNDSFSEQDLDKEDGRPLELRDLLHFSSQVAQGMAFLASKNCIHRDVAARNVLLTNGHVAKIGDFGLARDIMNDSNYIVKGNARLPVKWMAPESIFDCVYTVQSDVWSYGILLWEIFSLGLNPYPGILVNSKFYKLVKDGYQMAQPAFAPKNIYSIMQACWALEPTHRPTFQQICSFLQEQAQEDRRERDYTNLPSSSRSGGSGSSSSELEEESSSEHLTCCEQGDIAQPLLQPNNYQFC
Test readout: pIC50
Answers are plain numbers, as −log10 of the molar value.

pIC50 lookup needed for CCN1Cc2c(ccc(F)c2C#N)O[C@@H](C)CNC(=O)c2cnn3ccc1nc23 , thanks. 9.38

###

Molecular target: SRC (Homo sapiens, UniProt P12931)
Sequence (P12931 whole entry): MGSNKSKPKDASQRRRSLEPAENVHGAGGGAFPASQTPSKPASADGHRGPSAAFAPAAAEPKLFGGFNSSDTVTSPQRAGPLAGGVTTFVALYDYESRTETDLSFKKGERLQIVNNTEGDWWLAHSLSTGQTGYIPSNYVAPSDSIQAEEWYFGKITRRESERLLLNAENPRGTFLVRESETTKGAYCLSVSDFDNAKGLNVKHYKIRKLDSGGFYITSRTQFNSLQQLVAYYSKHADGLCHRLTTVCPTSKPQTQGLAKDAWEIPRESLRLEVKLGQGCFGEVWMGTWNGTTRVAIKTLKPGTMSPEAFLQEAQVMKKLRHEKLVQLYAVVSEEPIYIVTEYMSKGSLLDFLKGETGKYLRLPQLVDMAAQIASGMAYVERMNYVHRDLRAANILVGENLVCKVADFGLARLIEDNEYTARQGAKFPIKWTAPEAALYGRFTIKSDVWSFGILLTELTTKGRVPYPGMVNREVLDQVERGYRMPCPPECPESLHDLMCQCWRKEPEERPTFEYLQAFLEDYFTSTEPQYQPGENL
Test readout: pIC50
Give bare numbers, as −log10 of the molar value.

Here's what some known entries look like.
- Given smiles: "C[C@H]1CNC(=O)c2c(N)nn3ccc(nc23)N(CC2CC2)Cc2c(ccc(F)c2C#N)O1"
  Reported result: 9.15
- Given smiles: "CCN1Cc2c(C#N)cccc2O[C@@H](C)CNC(=O)c2c(N)nn3ccc1nc23"
  Reported result: 7.87

Attention now turns to another entry.
Give its pIC50 value. Item: CCN1Cc2c(ccc(F)c2C#N)O[C@@H](C)CNC(=O)c2c(N)nn3ccc1nc23 9.92

###

System: M-NFS-60 cells
Test: M-NFS-60 cell proliferation at varied CSF-1
Format: cell-based
Details: Mus musculus, CSF-1 0 ng/mL; read-out: M-NFS-60 IC50
pIC50: −log10 of the molar value.
Test readout: pIC50

Name the reported pIC50 value associated with the molecule FC(F)(F)c1ccc(CNc2ccc(Cc3c[nH]c4ncc(Cl)cc34)cn2)cn1 [Pexidartinib, reference compound] > 10.00

###

Test system: M-NFS-60 cells
Experiment: M-NFS-60 cell proliferation at varied CSF-1
Type: cell-based
Conditions: Mus musculus, read-out: M-NFS-60 IC50, CSF-1 100 ng/mL
Test readout: pIC50
One number for each entry, as −log10 of the molar value.

So what's the measured pIC50 for this one? CCN1Cc2c(ccc(F)c2C#N)O[C@@H](C)CNC(=O)c2c(N)nn3ccc1nc23 6.76

###

Test system: M-NFS-60 cells
Experiment: M-NFS-60 cell proliferation at varied CSF-1
Assay type: cell-based
Settings: Mus musculus, CSF-1 3 ng/mL; read-out: M-NFS-60 IC50
Test readout: pIC50
Numbers only, as −log10 of the molar value.

Query (compound): FC(F)(F)c1ccc(CNc2ccc(Cc3c[nH]c4ncc(Cl)cc34)cn2)cn1 [Pexidartinib, reference compound] ; field requested: pIC50 6.67

###

Tested on: MKN-45 cells
Assay: MET cell proliferation assay, MKN-45 (CellTiter-Glo)
Format: cell-based
Settings: Homo sapiens, 72 hours treatment
Test readout: pIC50
One number for each entry, as −log10 of the molar value.

Study these solved cases before continuing.
- Compound: "CCN1Cc2c(C#N)cccc2O[C@@H](C)CNC(=O)c2cnn3ccc1nc23 [Compound 2]"
  pIC50: 6.89
- Compound: "CCN1Cc2c(ccc(F)c2C#N)O[C@@H](C)CNC(=O)c2cnn3ccc1nc23 [Compound 4]"
  pIC50: 7.92
- Compound: "C[C@H]1CNC(=O)c2c(N)nn3ccc(nc23)N(CC2CC2)Cc2c(ccc(F)c2C#N)O1 [Compound 7]"
  pIC50: 7.75
- Compound: "CCN1Cc2c(ccc(F)c2Cl)O[C@@H](C)CNC(=O)c2c(N)nn3ccc1nc23 [Compound 1]"
  pIC50: 6.71
- Compound: "CC(C)N1Cc2c(ccc(F)c2C#N)O[C@@H](C)CNC(=O)c2c(N)nn3ccc1nc23 [Compound 8]"
  pIC50: 9.00

Would you mind listing pIC50 for each of the following compounds?
1. CCN1Cc2c(C#N)cccc2O[C@@H](C)CNC(=O)c2c(N)nn3ccc1nc23 [Compound 6]
2. C[C@H]1CNC(=O)c2c(N)nn3ccc(nc23)NCc2c(ccc(F)c2C#N)O1 [Compound 9]
3. CCN1Cc2c(C#N)cccc2OCCNC(=O)c2cnn3ccc1nc23 [Compound 3]

1. 7.23
2. 6.53
3. 6.33
